- TARGET: OR2AG1 (Homo sapiens)
- Sequence (Q9H205 1-316): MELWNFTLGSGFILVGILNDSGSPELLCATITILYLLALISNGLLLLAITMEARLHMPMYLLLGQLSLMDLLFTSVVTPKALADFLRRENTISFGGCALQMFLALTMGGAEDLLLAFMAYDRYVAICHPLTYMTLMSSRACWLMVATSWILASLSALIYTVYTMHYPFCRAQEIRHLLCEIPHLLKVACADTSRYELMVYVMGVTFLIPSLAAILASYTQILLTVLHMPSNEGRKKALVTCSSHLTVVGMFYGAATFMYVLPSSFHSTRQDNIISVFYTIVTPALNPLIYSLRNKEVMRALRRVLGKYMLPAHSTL
- ASSAY_EXPLANATION: fura-2 calcium imaging in native human airway smooth muscle cells; cAMP assay (text prints EC50 […], figure legend […])
READOUT_TYPE: pEC50
# reply with the number alone; pEC50 is -log10 of concentration in mol/L

I would be grateful if you could share the reported pEC50 for CCCCCOC(=O)CCC [amyl butyrate] .
3.60
